Would you kindly list OD450 at 10 nM antibody for each of these binders?
assayTarget: T1, murine GPC3-his protein (Sino Biological, Cat. No. 50989-M08B) (murine, UniProt Q8CFZ4 25-558)
T1 construct: Bought protein; also called murine GPC3 protein
T1 sequence (Q8CFZ4 25-558 limits assumed): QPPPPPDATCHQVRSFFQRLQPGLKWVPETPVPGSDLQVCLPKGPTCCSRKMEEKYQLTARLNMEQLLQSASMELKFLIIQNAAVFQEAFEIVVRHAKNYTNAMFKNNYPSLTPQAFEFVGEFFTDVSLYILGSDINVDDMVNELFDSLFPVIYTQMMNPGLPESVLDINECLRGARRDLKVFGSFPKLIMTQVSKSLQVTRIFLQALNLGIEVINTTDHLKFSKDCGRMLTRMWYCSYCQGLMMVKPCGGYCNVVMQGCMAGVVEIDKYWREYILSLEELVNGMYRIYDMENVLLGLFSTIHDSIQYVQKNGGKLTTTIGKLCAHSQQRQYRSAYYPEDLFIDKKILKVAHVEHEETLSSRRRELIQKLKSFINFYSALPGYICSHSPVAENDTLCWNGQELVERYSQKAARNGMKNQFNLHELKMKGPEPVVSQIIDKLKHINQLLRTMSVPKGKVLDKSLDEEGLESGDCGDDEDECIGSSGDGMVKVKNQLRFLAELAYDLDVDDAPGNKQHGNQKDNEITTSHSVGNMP
methodDescription: ELISA, coated murine GPC3-His;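 note: antigen coated on plates at 1 µg/mL, test antibody bound for 2 h at 37 °C, detected with HRP-conjugated secondary antibody and TMB substrate after acid stop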

Example entries and their recorded answers appear below.
• F4.13.7 human-murine chimeric antibody (antibody, human IgG1, kappa, V domains shown) VH: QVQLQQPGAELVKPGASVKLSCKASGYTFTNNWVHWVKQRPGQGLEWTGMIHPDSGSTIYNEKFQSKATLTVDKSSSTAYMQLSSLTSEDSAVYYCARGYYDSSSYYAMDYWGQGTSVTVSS VL: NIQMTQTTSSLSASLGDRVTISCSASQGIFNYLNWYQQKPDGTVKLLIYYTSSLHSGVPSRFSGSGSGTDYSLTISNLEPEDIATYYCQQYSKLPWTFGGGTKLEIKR = 2.88 OD450 nm
• F1.9.19 human-murine chimeric antibody (antibody, human IgG1, kappa, V domains shown) VH: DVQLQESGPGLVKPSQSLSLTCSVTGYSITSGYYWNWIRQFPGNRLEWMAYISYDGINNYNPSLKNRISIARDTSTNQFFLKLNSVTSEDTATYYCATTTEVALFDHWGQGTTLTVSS VL: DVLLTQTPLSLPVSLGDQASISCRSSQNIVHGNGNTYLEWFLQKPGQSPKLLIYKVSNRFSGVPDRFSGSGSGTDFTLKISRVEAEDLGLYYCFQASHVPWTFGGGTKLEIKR = 0.05 OD450 nm
• F4.18.4 human-murine chimeric antibody (antibody, human IgG1, kappa, V domains shown) VH: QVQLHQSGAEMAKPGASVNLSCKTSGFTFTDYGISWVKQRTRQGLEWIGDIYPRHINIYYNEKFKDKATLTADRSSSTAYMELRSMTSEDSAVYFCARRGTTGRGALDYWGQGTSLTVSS VL: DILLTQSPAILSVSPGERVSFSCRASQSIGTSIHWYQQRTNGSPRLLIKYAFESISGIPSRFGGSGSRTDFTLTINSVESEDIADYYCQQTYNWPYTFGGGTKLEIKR = 0.16 OD450 nm
• F2.152.3 human-murine chimeric antibody (antibody, human IgG1, kappa, V domains shown) VH: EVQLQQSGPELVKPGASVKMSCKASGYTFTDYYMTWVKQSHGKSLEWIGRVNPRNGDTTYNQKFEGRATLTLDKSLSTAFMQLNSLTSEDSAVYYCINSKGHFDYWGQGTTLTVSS VL: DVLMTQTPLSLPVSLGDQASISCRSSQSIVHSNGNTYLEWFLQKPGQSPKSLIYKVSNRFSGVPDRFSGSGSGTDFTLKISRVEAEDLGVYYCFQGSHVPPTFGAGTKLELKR = 2.53 OD450 nm
• F2.55.11 human-murine chimeric antibody (antibody, human IgG1, kappa, V domains shown) VH: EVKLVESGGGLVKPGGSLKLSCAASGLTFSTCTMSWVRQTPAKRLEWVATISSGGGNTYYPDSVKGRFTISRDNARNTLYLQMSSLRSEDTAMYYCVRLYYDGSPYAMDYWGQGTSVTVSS VL: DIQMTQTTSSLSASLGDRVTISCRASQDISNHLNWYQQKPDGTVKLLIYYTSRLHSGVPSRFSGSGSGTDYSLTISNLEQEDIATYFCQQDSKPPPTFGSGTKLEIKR = 0.07 OD450 nm
• F1.83.6 human-murine chimeric antibody (antibody, human IgG1, kappa, V domains shown) VH: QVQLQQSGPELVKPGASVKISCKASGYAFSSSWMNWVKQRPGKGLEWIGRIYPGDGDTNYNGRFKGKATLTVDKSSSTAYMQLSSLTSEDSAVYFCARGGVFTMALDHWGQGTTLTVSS VL: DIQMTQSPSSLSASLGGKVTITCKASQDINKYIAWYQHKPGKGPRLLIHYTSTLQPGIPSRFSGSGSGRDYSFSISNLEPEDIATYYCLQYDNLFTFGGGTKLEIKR = 0.24 OD450 nm

Task item: What does the data say about its OD450 at 10 nM antibody? Entry: F1.136.7 human-murine chimeric antibody (antibody, human IgG1, kappa, V domains shown) VH: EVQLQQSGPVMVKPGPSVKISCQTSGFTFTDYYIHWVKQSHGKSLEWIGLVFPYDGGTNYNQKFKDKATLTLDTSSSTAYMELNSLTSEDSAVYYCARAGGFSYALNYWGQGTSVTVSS VL: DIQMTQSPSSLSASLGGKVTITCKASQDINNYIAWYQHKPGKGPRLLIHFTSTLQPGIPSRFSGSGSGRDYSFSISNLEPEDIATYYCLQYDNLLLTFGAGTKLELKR
Reply: 0.91 OD450 nm
